Molecular target: USP7 (Homo sapiens, UniProt Q93009)
Construct: Full-length wild-type human USP7 and its catalytic mutant (cysteine 223 replaced by alanine, C223A) were produced as N-terminally His-tagged fusions; His (N); made in house; host or cells: Spodoptera frugiperda Sf9 (or High Five) insect cells, baculovirus pFastBac-HT-B
Experiment: USP7 activity assay (Ub-AMC substrate)
Type: biochemical
Details: Ub-AMC 300 nM, USP7 100 pM, 30 min pre-incubation
This listing pairs molecules with measured IC50.
Observed property: IC50 (µM)

1. COc1ccc(CN2CCC(CNC(=O)c3ccc4c(Cl)c5c(nc4c3)CCCC5)CC2)cc1    27.4
2. O=C(NCC(CN1CCCC1)C(O)c1ccccc1)c1ccc2c(Cl)c3c(nc2c1)CCCC3 (stereo not drawn)    59.5
3. O=C(NCC1CCNCC1)c1ccc2c(Cl)c3c(nc2c1)CCCC3    45.2
